Kindly state IC50 for each of the entries shown.
molecular target: rSmTAChE (Schistosoma mansoni, UniProt A0A3Q0KMM5); assay type: biochemical; conditions: read-out: qAC50 (IC50), rSmTAChE
Sequence (A0A3Q0KMM5 27-661 limits assumed): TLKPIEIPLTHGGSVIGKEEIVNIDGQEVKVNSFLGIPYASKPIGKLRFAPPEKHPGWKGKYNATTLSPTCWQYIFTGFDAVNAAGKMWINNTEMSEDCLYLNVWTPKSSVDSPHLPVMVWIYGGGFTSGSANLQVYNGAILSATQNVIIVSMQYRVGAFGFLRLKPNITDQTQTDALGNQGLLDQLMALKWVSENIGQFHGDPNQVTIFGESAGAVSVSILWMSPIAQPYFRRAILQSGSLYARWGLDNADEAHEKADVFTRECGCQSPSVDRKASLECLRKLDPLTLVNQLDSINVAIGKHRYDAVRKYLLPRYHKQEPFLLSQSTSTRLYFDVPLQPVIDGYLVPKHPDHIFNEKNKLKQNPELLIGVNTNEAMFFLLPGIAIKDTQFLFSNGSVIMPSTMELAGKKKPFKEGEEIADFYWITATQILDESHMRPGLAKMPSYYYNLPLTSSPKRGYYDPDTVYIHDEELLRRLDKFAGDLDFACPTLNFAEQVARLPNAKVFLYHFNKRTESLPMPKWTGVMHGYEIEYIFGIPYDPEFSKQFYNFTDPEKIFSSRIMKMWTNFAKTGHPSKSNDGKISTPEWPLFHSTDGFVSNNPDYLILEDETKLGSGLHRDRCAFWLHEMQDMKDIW

Given the compound `C[C@H]1[C@H](C)CC[C@]2(C(=O)O)CC[C@]3(C)C(=CC[C@@H]4[C@@]5(C)CC[C@H](O)C(C)(C)[C@@H]5CC[C@]43C)[C@H]12` , what is its reported IC50?
> 38 µM

Field request: IC50 | item: `C[C@@H]1C[C@H]2[C@@H]3CCC4=CC(=O)C=C[C@]4(C)[C@@]3(Cl)[C@@H](O)C[C@]2(C)[C@@]1(OC(=O)c1ccco1)C(=O)CCl`
> 38 µM

Look at this compound and give its reported IC50. `COCCOc1ccc2c(c1)ncn2-c1ccc2cccc(N3CCC(N)CC3)c2n1`
> 38 µM

Recorded IC50 of CC(=O)[C@@]12OC(C)(c3ccccc3)O[C@@H]1C[C@H]1[C@@H]3CCC4=CC(=O)CC[C@]4(C)[C@H]3CC[C@@]12C (some centres unmarked) , please.
> 38 µM

Requested field: IC50. Item: `O=C(O)CCc1cc(C(=O)c2ccc(OC3CCCC3)cc2O)ccc1OCc1ccc2c(=O)[nH]oc2c1`
> 38 µM

====

molecular target: rSmTAChE (Schistosoma mansoni); test: biochemical
Classification field: Fulfilled = Inhibition (%) Replicate A at or over 70%; Not fulfilled = Inhibition (%) Replicate A under 70%.

Hello, I need to know if CCC(CC)C(c1ccc(Nc2nc3ccccc3s2)cc1)n1cncn1 (stereo not drawn) has measured Inhibition (%) Replicate A not below 70%. Thanks!
Fulfilled

Would you say `CC(C)Oc1ccc(-c2cnc3c(-c4ccnc5ccccc45)cnn3c2)cc1` shows Inhibition (%) Replicate A at minimum 70%?
Not fulfilled

Dear colleague, could you confirm whether CCCCCCCC/C=C\CCCCCCCC(=O)NCCc1ccc(O)c(O)c1 [OLDA, reference compound] has Inhibition (%) Replicate A at or above 70%?
Fulfilled

Threshold query (Inhibition (%) Replicate A >= 70%) on `COc1ccc(NC(=O)Nc2ccc3c(c2)[C@@H]2C[C@H](CC(=O)NCc4ccccc4F)O[C@@H](CO)[C@@H]2O3)cc1`
Not fulfilled

// inclusive: Inhibition (%) Replicate A at least 70%? input: `COc1ccc(NC(=O)Nc2ccc3c(c2)[C@H]2C[C@@H](CC(=O)NCc4ccccn4)O[C@H](CO)[C@H]2O3)cc1`
Fulfilled

Check this compound for Inhibition (%) Replicate A at or above 70%: `O=C(C[C@@H]1C[C@@H]2c3cc(NC(=O)Nc4ccccc4)ccc3O[C@@H]2[C@@H](CO)O1)NC1CCCC1`
Fulfilled

Hi, just wondering whether `COC(=O)N[C@H](C(=O)N1CC2(CC2)C[C@H]1c1ncc(-c2ccc3c(c2)C(F)(F)c2cc(-c4ccc5nc([C@@H]6[C@H]7CC[C@H](C7)N6C(=O)[C@@H](NC(=O)OC)C(C)C)[nH]c5c4)ccc2-3)[nH]1)C(C)C` shows Inhibition (%) Replicate A of 70% or higher.
Not fulfilled

Determine whether measured Inhibition (%) Replicate A meets or exceeds 70% for `CC(C)(O)c1ccccc1CC[C@@H](SCC1(CC(=O)O)CC1)c1cccc(/C=C/c2ccc3ccc(Cl)cc3n2)c1`
Fulfilled

Quick check, Inhibition (%) Replicate A >= 70%? `CC(C)C#Cc1ccc([C@@H]2[C@@H](CO)N3C(=O)CN(S(=O)(=O)c4ccccc4)C[C@@H]23)cc1`
Not fulfilled

Exam item: decide whether the reported Inhibition (%) Replicate A for `COc1ccc(NC(=O)Nc2ccc3c(c2)[C@@H]2C[C@H](CC(=O)NCC4CC4)O[C@@H](CO)[C@@H]2O3)cc1` is at least 70%.
Fulfilled

Is Inhibition (%) Replicate A for `Cc1c(C(=O)NN2CCCCC2)nn(-c2ccc(Cl)cc2Cl)c1-c1ccc(Cl)cc1` at or above 70%?
Fulfilled

Check if Inhibition (%) Replicate A >= 70% (inclusive). Item: `CCCN1C[C@H](CSC)C[C@@H]2c3cccc4[nH]cc(c34)C[C@H]21`
Fulfilled

====

Please respond with reported Inhibition (%) Replicate A for every item in the list.
biological target: rSmTAChE (Schistosoma mansoni, UniProt A0A3Q0KMM5); assay: biochemical
The reply should be a number in %, with the unit left off.

Tell me reported Inhibition (%) Replicate A for `COc1ccc(NC(=O)Nc2ccc3c(c2)[C@@H]2C[C@H](CC(=O)NCc4ccccn4)O[C@@H](CO)[C@@H]2O3)cc1` , tested with rSmTAChE (Schistosoma mansoni, UniProt A0A3Q0KMM5).
78.02

Request: Inhibition (%) Replicate A, test system rSmTAChE (Schistosoma mansoni, UniProt A0A3Q0KMM5), entry Clc1ccc(C(c2ccccc2Cl)C(Cl)Cl)cc1 (stereo not drawn)
71.94

Give Inhibition (%) Replicate A (rSmTAChE (Schistosoma mansoni, UniProt A0A3Q0KMM5)) of the following compound: `C[C@H](CO)N1C[C@H](C)[C@H](CN(C)S(=O)(=O)c2ccc(F)cc2)Oc2c(NC(=O)Nc3cccc4ccccc34)cccc2C1=O`
69.56

====

biological target: recombinant human acetylcholinesterase, rHsAChE (Homo sapiens); test: biochemical; conditions: read-out: IC50 (µM) rHsAChE
Sequence (P22303 32-614): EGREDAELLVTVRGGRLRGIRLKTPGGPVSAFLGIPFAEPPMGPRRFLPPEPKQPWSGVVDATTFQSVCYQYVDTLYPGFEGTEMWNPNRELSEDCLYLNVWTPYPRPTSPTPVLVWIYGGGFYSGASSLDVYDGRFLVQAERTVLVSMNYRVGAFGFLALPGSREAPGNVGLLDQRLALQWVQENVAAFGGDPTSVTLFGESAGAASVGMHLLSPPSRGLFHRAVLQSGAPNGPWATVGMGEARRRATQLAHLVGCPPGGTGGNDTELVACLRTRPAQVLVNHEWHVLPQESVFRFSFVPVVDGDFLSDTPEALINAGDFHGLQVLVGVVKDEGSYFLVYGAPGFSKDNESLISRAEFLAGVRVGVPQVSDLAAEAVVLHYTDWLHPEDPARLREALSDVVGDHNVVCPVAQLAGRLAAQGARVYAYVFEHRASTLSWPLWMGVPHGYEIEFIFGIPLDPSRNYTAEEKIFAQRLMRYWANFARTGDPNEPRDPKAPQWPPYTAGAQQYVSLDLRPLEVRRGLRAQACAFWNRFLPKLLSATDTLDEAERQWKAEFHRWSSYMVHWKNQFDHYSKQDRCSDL
EXPERIMENTAL ENDPOINT: IC50

# input compound: Nc1nc(NCC2CCC(CNS(=O)(=O)c3cccc4ccccc34)CC2)nc2ccccc12 (stereo not drawn) [CGP-71683, reference compound] ; wanted: its IC50
> 19.5 µM

Name the reported IC50 value associated with the compound CCCCCCCC/C=C\CCCCCCCC(=O)NCCc1ccc(O)c(O)c1 [OLDA, reference compound]
> 13.5 µM

What value of measured IC50 is listed for Brc1cc2c(cc1[C@@H]1Nc3ccccc3[C@@H]3C=CC[C@@H]31)OCO2 [G15, reference compound] ?
> 13.5 µM

====

target: rSmTAChE (Schistosoma mansoni, UniProt A0A3Q0KMM5); assay: biochemical
For each record, write down the corresponding Inhibition (%) Replicate A.

Look up Inhibition (%) Replicate A for this compound: CC(C)=CCC/C(C)=C/CC/C(C)=C/CSc1ccccc1C(=O)O [BRD-K98453471-001-01-7]
77.70%

Endpoint output: Inhibition (%) Replicate A of O=C(C[C@@H]1C[C@@H]2c3cc(NC(=O)NC4CCCC4)ccc3O[C@@H]2[C@H](CO)O1)NCc1ccccc1F [BRD-K14652476-001-01-0] . Value?
85.09%

Look up Inhibition (%) Replicate A for this compound: C[C@H](Oc1cc(-c2cnn(C3CCNCC3)c2)cnc1N)c1c(Cl)ccc(F)c1Cl [BRD-K40308497-001-01-2]
85.50%

Tell me the measured Inhibition (%) Replicate A of CCOC(=O)N1c2ccc(C(F)(F)F)cc2[C@@H](N(Cc2cc(C(F)(F)F)cc(C(F)(F)F)c2)C(=O)OC)C[C@H]1CC [BRD-K55675242-001-03-0] , please.
72.88%

Which measured Inhibition (%) Replicate A value corresponds to COC(=O)/C=C/c1cccc(N(Cc2ccc(-c3ccc(N(C)C)cc3)cc2)C(=O)C2CCCCC2)c1 [BRD-K08864679-001-02-2] ?
71.08%

What value of Inhibition (%) Replicate A has been reported for the following compound? N#C[C@H]1[C@@H](c2ccc(C#CC3CC3)cc2)[C@@H](CO)N1C(=O)Cc1ccccn1 [BRD-K68325500-004-02-0]
63.64%

For the compound shown here, C[C@]12CC[C@@H]3c4ccc(O)cc4CC[C@H]3[C@@H]1CCC2=O [BRD-K81839095-001-25-1] , give the reported Inhibition (%) Replicate A.
91.12%

====

molecular target: UniProt:A0A3Q0KMM5; experiment: biochemical
I'd appreciate it if you could supply Inhibition (%) (Average) values for the items below.
// units = %; emit number, no label

Need Inhibition (%) (Average), item `CC(C)(O)c1ccccc1CC[C@@H](SCC1(CC(=O)O)CC1)c1cccc(/C=C/c2ccc3ccc(Cl)cc3n2)c1`
81.70

Look up Inhibition (%) (Average) for this molecule: `O=C(C[C@H]1C[C@H]2c3cc(NC(=O)NC4CCCC4)ccc3O[C@H]2[C@@H](CO)O1)NCc1ccccc1F`
88.85

Entry `COc1ccc(NC(=O)Nc2ccc3c(c2)[C@H]2C[C@@H](CC(=O)NCC(F)(F)F)O[C@@H](CO)[C@H]2O3)cc1` has what Inhibition (%) (Average)?
90.84

# query: Inhibition (%) (Average) of entry CCC(CC)C(c1ccc(Nc2nc3ccccc3s2)cc1)n1cncn1 (stereo not drawn)
71.38

Quick check: Inhibition (%) (Average) of `O=C(C[C@@H]1C[C@@H]2c3cc(NC(=O)NC4CCCC4)ccc3O[C@@H]2[C@@H](CO)O1)NCc1ccccc1F` ?
89.18

Value lookup for Inhibition (%) (Average); key = `CC(C)C#Cc1ccc([C@@H]2[C@@H](CO)N3C(=O)CN(S(=O)(=O)c4ccccc4)C[C@@H]23)cc1`
63.59

Look up Inhibition (%) (Average): CCCCCCCCCCCC([NH2+][O-])c1cc(C)ccc1O (stereo not drawn)
84.23

Requested field: Inhibition (%) (Average). Item: `O=C(Nc1ccc(Cl)cc1)Nc1ccc(Cl)c(Cl)c1`
85.20

Please look up its Inhibition (%) (Average): `CCc1c(C(=O)NCCc2ccc(N3CCCCC3)cc2)[nH]c2ccc(Cl)cc12`
61.28

Quick one: Inhibition (%) (Average) of `COc1ccc(NC(=O)Nc2ccc3c(c2)[C@H]2C[C@@H](CC(=O)NCc4ccccn4)O[C@@H](CO)[C@H]2O3)cc1` ?
89.33

Please give the measured Inhibition (%) (Average) for this molecule: `CC(C)n1cnc2c(NCCc3ccc(O)cc3)nc(-c3csc4ccccc34)nc21`
68.06

Consider the molecule `O=C(C[C@H]1C[C@H]2c3cc(NC(=O)Nc4ccc(C(F)(F)F)cc4)ccc3O[C@H]2[C@H](CO)O1)NC1CCCCC1` and give its measured Inhibition (%) (Average).
69.15

I have this molecule here, `CC(C)Oc1ccc(-c2cnc3c(-c4ccnc5ccccc45)cnn3c2)cc1` , and I need its recorded Inhibition (%) (Average).
67.85

Which Inhibition (%) (Average) reading was recorded for the molecule `Cc1nc2sccn2c(=O)c1CCN1CCC(=C(c2ccc(F)cc2)c2ccc(F)cc2)CC1` ?
80.73

Form field: reported Inhibition (%) (Average) of `COc1ccc(NC(=O)Nc2ccc3c(c2)[C@@H]2C[C@H](CC(=O)NCc4ccccn4)O[C@@H](CO)[C@@H]2O3)cc1`
77.92

Inhibition (%) (Average) lookup needed for `C[C@H](NC(=O)C[C@H]1C[C@H]2c3cc(NC(=O)Nc4ccc(C(F)(F)F)cc4)ccc3O[C@H]2[C@H](CO)O1)c1ccccc1` , thanks.
68.45

# Inhibition (%) (Average) lookup, item CC(=O)[C@@]12OC(C)(c3ccccc3)O[C@@H]1C[C@H]1[C@@H]3CCC4=CC(=O)CC[C@]4(C)[C@H]3CC[C@@]12C (stereo partly drawn)
86.37

Inhibition (%) (Average) for `CC#C[C@@H](CC(=O)O)c1ccc(OCc2cccc(-c3ccc(C(F)(F)F)cc3)c2)cc1` ?
79.76

Attribution: paper PMC12154458
